Hey, just so you know, these numbers are from ChEMBL document CHEMBL4513216.

Experiment: Toxicity liver stage against HepG2, at 10uM
Assay type: cell-based
Parameters: test concentration 10 uM, cell line HepG2-A16-CD81EGFP
Conditions: human, HepG2-A16-CD81EGFP cells; read-out: INHIBITION
Assign cytotoxicity at 10 µM to each entry below.
Numbers only, in %.

Take a look at these entries with their results.
COc1cccc(CC2CN(C3CCN(C(C)=O)CC3)CCO2)c1 (stereo not drawn) | -12.4
CN(C)c1cc(C2CCN(C(=O)c3cnn(C)c3)CC2)ccn1 | 0.075
O=C(c1cccn1Cc1cccs1)N1CCSCC1 | 4.14

Each compound below has a reported value. Please supply its cytotoxicity at 10 µM.
1. CCN(Cc1cccc2c1OCO2)CC1CCCO1 (stereo not drawn)
2. CC(C)c1nccn1C1CCCN(C(=O)c2ccc3[nH]nnc3c2)C1 (stereo not drawn)
3. Cc1c(S(=O)(=O)NC2CC2)cc2c(C)cc(=O)n3c2c1CCC3
4. Cc1ncc(CN(C)C2CCCN(Cc3noc(C4CC4)n3)C2)s1 (stereo not drawn)
5. CC(C)c1nnc2n1CCN(C(=O)c1ccc3cc[nH]c3c1)C2

a:
1. 3.18
2. 1.9
3. -1.95
4. -13.5
5. 4.02

Each compound below has a reported value. Please supply its cytotoxicity at 10 µM.
1. CCn1c(C(=O)N2CCN(C(=O)COC)CC2)cc2ccccc21
2. Cc1cc2cc(Nc3c(C#N)c(=O)n(C)c(=O)n3C)ccc2[nH]1
3. Cc1nccn1C1CCCN(C(=O)c2cccc(S(C)(=O)=O)c2)C1 (stereo not drawn)
4. CCc1nc2n(n1)CC(Nc1nc(C)cc(N(C)C)n1)CC2 (stereo not drawn)
5. CC(C)NC(=O)CC1COC2(CCN(Cc3cccnc3)CC2)C1 (stereo not drawn)

a:
1. -6.59
2. 1.11
3. -11.6
4. 5.02
5. 0.405

* * *

Test: Toxicity liver stage against HepG2, at 10uM
Assay type: cell-based
Design: test concentration 10 uM, cell line HepG2-A16-CD81EGFP
Conditions: human, HepG2-A16-CD81EGFP cells; read-out: INHIBITION
Assign cytotoxicity at 10 µM to each entry below.
Give bare numbers, in %.

Take a look at these entries with their results.
Cc1ccccc1S(=O)(=O)CCOC(C)C | 0.456
O=C(c1cscn1)N1CCCCC1c1nc2cc(F)ccc2[nH]1 (configuration not stated) | 7.59
Cc1cc(NC(=O)NCCc2cscn2)nn1C | 2.24
Cc1cccc(C(=O)N2C[C@H](NS(C)(=O)=O)[C@@H]3OCCC[C@@H]32)n1 | -77.4
CC(C)c1nc(CN(C)CC2CCN(CCO)CC2)no1 | -4.32
O=S(=O)(c1ccccc1Br)N1CCC2(CC1)OCCS2 | -1.86

Kindly review the next molecule as well.
q: For the molecule CC(C)(C(=O)NCC(=O)N1CCCC1)c1ccccc1F , what cytotoxicity at 10 µM is on record?
a: 2.66

* * *

Assay: Toxicity liver stage against HepG2, at 10uM
Type: cell-based
Parameters: test concentration 10 uM, cell line HepG2-A16-CD81EGFP
Settings: human, HepG2-A16-CD81EGFP cells; read-out: INHIBITION
Reported Property: cytotoxicity at 10 µM (%)
Numbers only, in %.

CCCS(=O)(=O)N1C[C@@H]2COC[C@@H](Cc3nc(C)no3)[C@@H]2C1 | 6.34
CCn1c(CC2CCN(C(=O)C3CC(C(C)C)=NO3)CC2)nn(C)c1=O (stereo unspecified) | 3.72
Cc1nnc(C2Cc3ccccc3CN2Cc2nc(C3CC3)no2)o1 (stereo unspecified) | -13.1

Each molecule below has a reported value. Please supply its cytotoxicity at 10 µM.
1. CC(NC(=O)COc1ccccc1C(=O)O)c1ccc(F)cc1 (stereo unspecified)
2. Cc1cnn(CC2CN(Cc3nc(-c4ccoc4)no3)CCO2)c1 (stereo unspecified)
3. CC(Cc1cccnc1)Nc1ncnc2cccc(F)c12 (stereo unspecified)

a:
[-1.11, -9.63, 26.3]

Each molecule below has a reported value. Please supply its cytotoxicity at 10 µM.
1. Cc1cc(C)cc(OCn2ccc(C(=O)O)n2)c1
2. O=C(COc1cccc2c1CCC2=O)NCc1ccccc1Cl

a:
1: 6.06; 2: -3.46

Each molecule below has a reported value. Please supply its cytotoxicity at 10 µM.
1. O=C(CCCOc1ccc(F)cc1)N1CCCC(n2cccn2)C1 (stereo unspecified)
2. CNC(=O)C(C)(C)NC(=O)c1cc(COc2ccccc2OC)[nH]n1

a:
4.23
1.6

Each molecule below has a reported value. Please supply its cytotoxicity at 10 µM.
1. O=C(NCC1CC1)c1nnc2ccc(Cl)cc2n1
2. CC(C1CC1)N(CC(=O)NCC(F)(F)F)C1CC1 (stereo unspecified)
3. O=C(Cc1cccnc1)NCCS(=O)(=O)c1ccccc1F
4. Cc1cc(C)n(CC2CCCN2C(=O)CCc2ccncc2)n1 (stereo unspecified)

a:
[0.318, -4.42, 6.72, -14.4]

* * *

Experiment: Toxicity liver stage against HepG2, at 10uM
Format: cell-based
Design: test concentration 10 uM, cell line HepG2-A16-CD81EGFP
Details: human, HepG2-A16-CD81EGFP cells; read-out: INHIBITION
Assign cytotoxicity at 10 µM to each entry below.
Numbers only, in %.

Take a look at these entries with their results.
Cc1nc[nH]c1CN1CCc2nc3scc(C)c3c(=O)n2CC1 | -35.7
NC(=O)C1CCN(C(=O)NCc2ccc(-c3ccn[nH]3)cc2)CC1 | -1.73

Each compound below has a reported value. Please supply its cytotoxicity at 10 µM.
1. CCc1nc(CN2CCCN(C(=O)CC3CCCC3)CC2)cs1
2. O=C(NCCNc1ncccn1)C1CCN(C(=O)N2CCCC2)CC1
3. Cn1cc(C(=O)N2CCSc3ccccc32)ccc1=O
4. OC(CN1CCC(c2ccn[nH]2)CC1)c1cccc(F)c1 (centres undefined)
5. COc1ncc(C2(O)CCN(Cc3c(F)cccc3F)CC2)c(OC)n1
6. Cc1noc(C2CCN(C(=O)c3cc(Cl)c(Cl)n3C)CC2)n1

a:
[-25.2, -6.11, -22.9, -7.64, 5.29, 10.7]

* * *

Assay: Toxicity liver stage against HepG2, at 10uM
Format: cell-based
Set-up: test concentration 10 uM, cell line HepG2-A16-CD81EGFP
Settings: human, HepG2-A16-CD81EGFP cells; read-out: INHIBITION
Assign cytotoxicity at 10 µM to each entry below.
Answers are plain numbers, in %.

Take a look at these entries with their results.
CCCN1CCCn2nc(CNC(=O)CC3CCS(=O)(=O)C3)cc2C1 (centres undefined) | -2.1
COc1ccc(OC)c(NC(=O)NCC(O)c2ccc(F)c(F)c2)c1 (centres undefined) | 0.746

Each compound below has a reported value. Please supply its cytotoxicity at 10 µM.
1. Cc1cn(CC(=O)NC2CCC(C(=O)O)CC2)c2ccccc12 (centres undefined)
2. Cc1ccc(Cl)cc1N1CCC(CNC(=O)CC(F)(F)F)C1 (centres undefined)
3. Cc1cccc(C(C(=O)N2CC(Oc3ccccc3F)C2)N(C)C)c1 (centres undefined)
4. Cc1cc(-c2ccnn2C)nc(C2CCN(S(C)(=O)=O)CC2)n1

a:
1. -0.214
2. -9.7
3. -0.572
4. 0.425

Each compound below has a reported value. Please supply its cytotoxicity at 10 µM.
1. Cc1nc(C)n(C2CCCN(C(=O)Cc3cccnc3)C2)n1 (centres undefined)
2. CC(=O)N(Cc1ncc(C)o1)C1CCN(Cc2csc(C)n2)C1 (centres undefined)

a:
[-2.15, -15.8]

Each compound below has a reported value. Please supply its cytotoxicity at 10 µM.
1. Cc1cc(C(C)(O)CNC(=O)c2ccc(Br)o2)c(C)o1 (centres undefined)
2. CCN(CC)C(CNCc1ccc(O)cc1)c1ccco1 (centres undefined)
3. Cc1nn(CCC(=O)NC2CCS(=O)(=O)C2)c(C)c1Br (centres undefined)
4. O=C(Cc1ccsc1)N1CCC(c2noc(-c3ccncc3)n2)CC1
5. O=C(NCCCNCC1CNc2ccnn2C1)c1ccccc1 (centres undefined)
6. Cc1occc1C(=O)Nc1cccc(C(=O)OCC2CCCN2)c1 (centres undefined)

a:
1. -0.159
2. 1.29
3. 0.549
4. -22.1
5. -1.48
6. -2.09

* * *

Assign cytotoxicity at 10 µM to each entry below.
Assay: Toxicity liver stage against HepG2, at 10uM
Format: cell-based
Design: test concentration 10 uM, cell line HepG2-A16-CD81EGFP
Conditions: human, HepG2-A16-CD81EGFP cells; read-out: INHIBITION
Give bare numbers, in %.

Take a look at these entries with their results.
Cc1ccc(NC2CCN(C(=O)Cc3cccs3)CC2)nn1 | -6.8
CCC(C)(C)NC(=O)c1scnc1Cl | -0.47
CC(C)N1[C@H](CN2CCCC2)C[C@@H]2CN(Cc3cnn(C)c3)CC[C@@H]21 | -147
Cc1cc(NC(=O)CN2CCCC2c2c(C)nn(C)c2Cl)on1 (stereo not drawn) | -0.945
CCc1nc(C)ncc1C(=O)N1CC(=O)N(C)c2ccccc21 | 6.62
CC(C)(C)c1nc(CN2CCC(N3CCCCC3)CC2)no1 | -0.48

Each compound below has a reported value. Please supply its cytotoxicity at 10 µM.
1. O=C1NC2(CCN(C(=O)c3ccccc3)CC2)CC1c1cccnc1 (stereo not drawn)
2. COc1cc(C)c(C)cc1S(=O)(=O)NCC(O)c1cccn1C (stereo not drawn)
3. CC(NC(=O)Cn1cccnc1=O)c1ccc(C(F)(F)F)cc1 (stereo not drawn)
4. COC(=O)CNC(=O)c1scnc1C
5. CCOc1ccc(CNC(=O)c2cnc(OC)nc2)cc1
6. CCN1CCO[C@@H]2CN(C(=O)c3ccc4[nH]ccc4c3)CC[C@@H]2C1
7. CC(C)[C@@H]1CN(c2ncc(F)cn2)C[C@H]1NS(=O)(=O)N(C)C

a:
-10.9
-6.19
8.2
7.71
-0.121
-116
14
